Tested on: OCI-AML2;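 also: growth inhibition of OCI-AML2 cells, read out with a cell viability assay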
Experiment: cells
Assay type: functional, cell-based
Conditions: Homo sapiens
Description: SANGER: Inhibition of human OCI-AML2 cell growth in a cell viability assay.
pIC50: −log10 of the molar value.
List of pIC50 values.

>>> df
                                   molecule   value
0  C=CCc1cccc(/C=N/NC(=O)CN2CCN(Cc3ccccc3)CC2)c1O [PAC-1]  < 5.59
1  COc1cc(F)c(F)c(Nc2ccc(I)cc2F)c1NS(=O)(=O)C1(CC(O)CO)CC1 (stereo not drawn)  < 5.30

Let us examine a further case.
Reported pIC50 ( Cc1cc([C@@H](C)Nc2ccccc2C(=O)O)c2nc(N3CCOCC3)cc(=O)n2c1 [AZD-6482] ) = < 5.29
